Value source: patent US20120178694A1

- SYSTEM: C3 purified from fresh human plasma (human, UniProt P01024 23-1663)
- Sequence (P01024 23-1663): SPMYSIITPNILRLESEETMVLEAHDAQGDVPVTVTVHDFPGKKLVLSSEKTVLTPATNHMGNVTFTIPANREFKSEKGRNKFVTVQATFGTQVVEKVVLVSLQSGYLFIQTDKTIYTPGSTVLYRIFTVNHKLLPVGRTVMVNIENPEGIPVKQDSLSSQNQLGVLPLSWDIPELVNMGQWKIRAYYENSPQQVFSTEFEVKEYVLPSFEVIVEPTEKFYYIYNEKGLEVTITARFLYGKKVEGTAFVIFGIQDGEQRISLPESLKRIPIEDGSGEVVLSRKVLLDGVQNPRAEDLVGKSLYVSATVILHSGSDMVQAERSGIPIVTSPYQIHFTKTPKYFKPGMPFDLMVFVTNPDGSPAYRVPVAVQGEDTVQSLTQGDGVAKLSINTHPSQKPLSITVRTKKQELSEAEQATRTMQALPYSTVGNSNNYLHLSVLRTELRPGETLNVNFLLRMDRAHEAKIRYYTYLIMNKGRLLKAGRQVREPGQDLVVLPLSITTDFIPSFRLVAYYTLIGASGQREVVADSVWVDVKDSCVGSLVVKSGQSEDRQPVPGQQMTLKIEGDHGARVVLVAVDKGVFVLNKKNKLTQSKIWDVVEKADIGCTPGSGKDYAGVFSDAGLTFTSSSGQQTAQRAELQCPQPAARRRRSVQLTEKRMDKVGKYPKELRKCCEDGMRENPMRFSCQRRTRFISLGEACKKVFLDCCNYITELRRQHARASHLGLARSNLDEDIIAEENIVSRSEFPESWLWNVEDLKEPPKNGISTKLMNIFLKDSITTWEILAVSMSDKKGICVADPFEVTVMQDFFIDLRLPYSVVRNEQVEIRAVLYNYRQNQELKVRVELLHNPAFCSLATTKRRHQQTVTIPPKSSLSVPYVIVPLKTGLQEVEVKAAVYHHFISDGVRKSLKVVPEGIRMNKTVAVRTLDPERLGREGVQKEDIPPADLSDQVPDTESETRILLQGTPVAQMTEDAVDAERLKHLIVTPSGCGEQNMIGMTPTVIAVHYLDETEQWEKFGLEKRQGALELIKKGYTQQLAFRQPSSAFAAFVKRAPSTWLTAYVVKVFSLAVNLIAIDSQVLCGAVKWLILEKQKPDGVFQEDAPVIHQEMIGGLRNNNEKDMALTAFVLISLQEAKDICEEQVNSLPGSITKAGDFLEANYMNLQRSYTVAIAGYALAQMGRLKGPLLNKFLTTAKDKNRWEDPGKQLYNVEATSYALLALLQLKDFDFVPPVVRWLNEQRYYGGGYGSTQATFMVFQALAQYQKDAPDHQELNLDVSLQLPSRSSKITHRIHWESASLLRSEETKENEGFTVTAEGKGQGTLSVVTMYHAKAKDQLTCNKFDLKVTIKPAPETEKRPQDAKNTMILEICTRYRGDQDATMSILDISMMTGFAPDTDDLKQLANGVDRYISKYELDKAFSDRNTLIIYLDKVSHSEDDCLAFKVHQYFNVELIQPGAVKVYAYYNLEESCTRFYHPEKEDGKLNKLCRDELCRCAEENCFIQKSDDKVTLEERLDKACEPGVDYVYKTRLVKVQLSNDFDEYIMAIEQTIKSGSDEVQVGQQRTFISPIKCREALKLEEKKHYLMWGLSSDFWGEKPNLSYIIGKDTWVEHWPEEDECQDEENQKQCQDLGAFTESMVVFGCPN
- ASSAY PROTOCOL: cell-based or functional assay
Bridge positions count the residues as written; N and C are the ends. Square brackets hold non-standard residues; d marks the D form. NMeW = CN[C@@H](Cc1c[nH]c2ccccc12)C(=O)O; NMeR = CN[C@@H](CCCNC(=N)N)C(=O)O; NMeQ = CN[C@@H](CCC(N)=O)C(=O)O; NMeC = CN[C@@H](CS)C(=O)O
For each entry below, report its IC50 (CP), inhibition of classical pathway complement activation, ELISA value.
Return type: number; implicit unit µM.

Item: Ac-ICVYQDWGAHR[NMeC]T-NH2 (disulfide 2-12; SMILES CC[C@H](C)[C@H](NC(C)=O)C(=O)N[C@H]1CSSC[C@@H](C(=O)N[C@H](C(N)=O)[C@@H](C)O)N(C)C(=O)[C@H](CCCNC(=N)N)NC(=O)[C@H](Cc2c[nH]cn2)NC(=O)[C@H](C)NC(=O)CNC(=O)[C@H](Cc2c[nH]c3ccccc23)NC(=O)[C@H](CC(=O)O)NC(=O)[C@H](CCC(N)=O)NC(=O)[C@H](Cc2ccc(O)cc2)NC(=O)[C@H](C(C)C)NC1=O) [Ac-I[CVYQDWGAHR(NMe)C]T-NH2] | IC50 (CP), inhibition of classical pathway complement activation, ELISA: 154

Item: Ac-ICVYQD[NMeW]GAHRCT-NH2 (disulfide 2-12; SMILES CC[C@H](C)[C@H](NC(C)=O)C(=O)N[C@H]1CSSC[C@@H](C(=O)N[C@H](C(N)=O)[C@@H](C)O)NC(=O)[C@H](CCCNC(=N)N)NC(=O)[C@H](Cc2c[nH]cn2)NC(=O)[C@H](C)NC(=O)CNC(=O)[C@H](Cc2c[nH]c3ccccc23)N(C)C(=O)[C@H](CC(=O)O)NC(=O)[C@H](CCC(N)=O)NC(=O)[C@H](Cc2ccc(O)cc2)NC(=O)[C@H](C(C)C)NC1=O) [Ac-I[CVYQD(NMe)WGAHRC]T-NH2] | IC50 (CP), inhibition of classical pathway complement activation, ELISA: 25

Item: Ac-ICVY[NMeQ]DWGAHRCT-NH2 (disulfide 2-12; SMILES CC[C@H](C)[C@H](NC(C)=O)C(=O)N[C@H]1CSSC[C@@H](C(=O)N[C@H](C(N)=O)[C@@H](C)O)NC(=O)[C@H](CCCNC(=N)N)NC(=O)[C@H](Cc2c[nH]cn2)NC(=O)[C@H](C)NC(=O)CNC(=O)[C@H](Cc2c[nH]c3ccccc23)NC(=O)[C@H](CC(=O)O)NC(=O)[C@H](CCC(N)=O)N(C)C(=O)[C@H](Cc2ccc(O)cc2)NC(=O)[C@H](C(C)C)NC1=O) [Ac-I[CVY(NMe)QDWGAHRC]T-NH2] | IC50 (CP), inhibition of classical pathway complement activation, ELISA: 33

Item: Ac-I[NMeC]VYQDWGAHRCT-NH2 (disulfide 2-12; SMILES CC[C@H](C)[C@H](NC(C)=O)C(=O)N(C)[C@H]1CSSC[C@@H](C(=O)N[C@H](C(N)=O)[C@@H](C)O)NC(=O)[C@H](CCCNC(=N)N)NC(=O)[C@H](Cc2c[nH]cn2)NC(=O)[C@H](C)NC(=O)CNC(=O)[C@H](Cc2c[nH]c3ccccc23)NC(=O)[C@H](CC(=O)O)NC(=O)[C@H](CCC(N)=O)NC(=O)[C@H](Cc2ccc(O)cc2)NC(=O)[C@H](C(C)C)NC1=O) [Ac-I[(NMe)CVYQDWGAHRC]T-NH2] | IC50 (CP), inhibition of classical pathway complement activation, ELISA: 7.5

Item: Ac-ICVYQDWGAH[NMeR]CT-NH2 (disulfide 2-12; SMILES CC[C@H](C)[C@H](NC(C)=O)C(=O)N[C@H]1CSSC[C@@H](C(=O)N[C@H](C(N)=O)[C@@H](C)O)NC(=O)[C@H](CCCNC(=N)N)N(C)C(=O)[C@H](Cc2c[nH]cn2)NC(=O)[C@H](C)NC(=O)CNC(=O)[C@H](Cc2c[nH]c3ccccc23)NC(=O)[C@H](CC(=O)O)NC(=O)[C@H](CCC(N)=O)NC(=O)[C@H](Cc2ccc(O)cc2)NC(=O)[C@H](C(C)C)NC1=O) [Ac-I[CVYQDWGAH(NMe)RC]T-NH2] | IC50 (CP), inhibition of classical pathway complement activation, ELISA: 32
